Molecular target: T1, RBM5 RRM1-ZnF1 R198E (Homo sapiens, UniProt P52756 94-210, I107T;R198E)
T1 sequence: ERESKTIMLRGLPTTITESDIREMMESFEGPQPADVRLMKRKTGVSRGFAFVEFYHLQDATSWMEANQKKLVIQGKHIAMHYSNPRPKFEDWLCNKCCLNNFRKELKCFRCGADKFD
Assay: ITC; Zn; 20 mM MES pH 6.5, 100 mM NaCl, 2 mM 2-mercaptoethanol, 25 C; protein 10-30 uM in the cell; one-site fit
Conditions: tags: none; N-terminal Met-Gly from the NcoI site (left out)
Value type: pKd
# log scale: pKd equals minus log10 of the concentration in mol/L

Asked: What value of measured pKd is listed for UGGCUCUUCUCU (ssRNA) [GGCU_12] ?
Given back: 5.58

meta.source: paper PMC10349855
